- System: Mycobacterium tuberculosis
- test: Antitubercular activity against multidrug-resistant Mycobacterium tuberculosis CIBIN/UMF15:99 isolate by microplate Alamar blue assay
- Format: functional
Here the recorded MIC is given for each entry.
measuredAttribute: MIC (µg/mL)

smilesStr | measuredAttribute | readingUnit | boundSign | obsValue
CN[C@@H]1[C@H](O[C@H]2[C@H](O[C@H]3[C@H](O)[C@@H](O)[C@H](N=C(N)N)[C@@H](O)[C@@H]3N=C(N)N)O[C@@H](C)[C@]2(O)C=O)O[C@@H](CO)[C@H](O)[C@H]1O | MIC | µg/mL | > | 100
CO[C@H]1/C=C/O[C@@]2(C)Oc3c(C)c(O)c4c(O)c(c(/C=N/N5CCN(C)CC5)c(O)c4c3C2=O)NC(=O)/C(C)=C\C=C\[C@H](C)[C@H](O)[C@@H](C)[C@@H](O)[C@@H](C)[C@H](OC(C)=O)[C@@H]1C | MIC | µg/mL | > | 100
CC[C@@H](CO)NCCN[C@@H](CC)CO | MIC | µg/mL | = | 8
NNC(=O)c1ccncc1 | MIC | µg/mL | = | 3.1
CC(C)=CCC[C@H](C)[C@@H]1CC[C@@H](C)c2c(O)cc(C)cc21 | MIC | µg/mL | = | 6.3
